B1: Ventral anterior homeobox 1, residues 102 to 157; numbered along this chain, Q5SQQ9 (parent)
chain: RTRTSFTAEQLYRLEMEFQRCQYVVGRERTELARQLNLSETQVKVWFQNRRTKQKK

Variants of: B1
test details: abundance fitness (aPCA) (normalised: wild type 0, dead -1); higher = more abundant; growth selection in yeast, the domain comes from the species named
cond: Homo sapiens
Reported abundance fitness by item:
Enter the number alone.

>  <mutation descriptor>
F47Y

>  <abundance fitness>
-0.376

$$$$
>  <mutation descriptor>
C21Q

>  <abundance fitness>
-0.37

$$$$
>  <mutation descriptor>
Q22V

>  <abundance fitness>
-0.324

$$$$

Quickly give me recorded abundance fitness for `R50I`
-1.09

Quickly give me recorded abundance fitness for `S39H`
-0.334

Quickly give me recorded abundance fitness for `N49V`
-0.1

Quickly give me recorded abundance fitness for `N37W`
-0.605

Quickly give me recorded abundance fitness for `T52H`
-0.279

Quickly give me recorded abundance fitness for `Q54N`
-0.202

Quickly give me recorded abundance fitness for `W46C`
-0.909

Quickly give me recorded abundance fitness for `R27A`
0.07
